Values from the supplement of paper PMC6555819

# Test system: PPARg:RXRa 30nM:10nM, anti-RXR (NR concentration 30 nM, RXRa partner concentration 10 nM)
# ASSAY OVERVIEW: PBM binding z-score (relative to random genomic background probes); higher = stronger binding; sequences stand for … in GC…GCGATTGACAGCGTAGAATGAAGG
MEASURE: PBM binding z-score
I'd appreciate a reply containing only the number, no unit.

Record excerpt, results attached:
CGACCAAGGTCATAGGAGGTCAGTGAAGACAGAT; 2.45
ATATGTATGTTAAGGGTCATTCAGGTTGGTTCGC; 8.13

-- ask What does the data say about its PBM binding z-score? Entry: CAAACTAGGTCACGAAAGGTCGAAGTCGAATGAC
-- reply 5.91

-- ask Continue with CAAACTAGGTCACGAAAGGTCTAAGTCGAATGAC
-- reply 5.87
